System: Microbacterium 1 (Microbacterium arborescens)
protocol details: relative growth (AUC of 72 h growth curve relative to DMSO control, dAUC) (ratio); higher = more growth (less inhibition), active = hit call of the paper
assay context: 20 µM
experimental endpoint: relative growth
Form field (numeric): enter value without unit.

Field: example entries. Status: answers known.
molecule	relative growth
CNC(=O)c1cc(C#N)cc(C)c1NC(=O)c1cc(Br)nn1-c1ncccc1Cl	0.993
CN/C(=N/CC1CCOC1)N[N+](=O)[O-] (stereo not drawn)	1.02
O=C(Nc1ccc(F)cc1F)c1cccnc1Oc1cccc(C(F)(F)F)c1	0.997
CNC(=O)CSP(=S)(OC)OC	1
CC(C1CC1)C(O)(Cn1cncn1)c1ccc(Cl)cc1 (stereo not drawn)	0.987

Exam item: Look up relative growth for this molecule: CC(C)OC(=O)C(C(=O)OC(C)C)=C1SCCS1
Marked response: 1.02

Exam item: Record: N#CCNC(=O)c1cnccc1C(F)(F)F
Marked response: 1.01

Exam item: Note, next up: CCCC(Cn1cncn1)c1ccc(Cl)cc1Cl (stereo not drawn)
Marked response: 0.99

====

Test system: Arthrobacter 2 (Arthrobacter humicola)
protocol details: relative growth (AUC of 72 h growth curve relative to DMSO control, dAUC) (ratio); higher = more growth (less inhibition), active = hit call of the paper
assay context: 20 µM
Entries and their measured relative growth follow.
Give the value as a plain number.

Guide cases for relative growth, answers given:
molecule	experimental endpoint	reported
CCCCc1c(C)nc(NCC)nc1OS(=O)(=O)N(C)C	relative growth	0.863
O=C(Nc1ccccc1-c1ccc(Cl)cc1)c1cccnc1Cl	relative growth	1.01
CSc1nc(NC(C)C)nc(NC(C)C)n1	relative growth	0.956

Exam item: What measured relative growth goes with CC1(C)C(C=C(Cl)Cl)C1C(=O)OCc1cccc(Oc2ccccc2)c1 (stereo unspecified) ?
Marked response: 0.851

Exam item: # iterate: CNC(=O)CSP(=S)(OC)OC
Marked response: 0.992

Exam item: One more molecule: CCCCC(C#N)(Cn1cncn1)c1ccc(Cl)cc1 (stereo unspecified)
Marked response: 0.849

====

System: Neobacillus 1 (Neobacillus soli)
protocol details: relative growth (AUC of 72 h growth curve relative to DMSO control, dAUC) (ratio); higher = more growth (less inhibition), active = hit call of the paper
assay context: 20 µM
experimental endpoint: relative growth
Just the number, please, no unit after it.

molecule	target system	relative growth
O=C(Nc1ccccc1-c1ccc(Cl)cc1)c1cccnc1Cl	Neobacillus 1 (Neobacillus soli)	1.06
CC1(C)CON(Cc2ccccc2Cl)C1=O	Neobacillus 1 (Neobacillus soli)	0.965
CC1(C)[C@H](C(=O)O[C@H](C#N)c2cccc(Oc3ccccc3)c2)[C@@H]1C=C(Br)Br	Neobacillus 1 (Neobacillus soli)	1.1

Exam item: Query (molecule): CC(COc1ccc(Oc2ccccc2)cc1)Oc1ccccn1 (configuration not stated) ; field requested: relative growth
Marked response: 1.09

Exam item: Same question for CCOCn1c(-c2ccc(Cl)cc2)c(C#N)c(Br)c1C(F)(F)F please.
Marked response: 0.979

====

Tested on: Paenibacillus 1 (Paenibacillus castaneae)
protocol details: relative growth (AUC of 72 h growth curve relative to DMSO control, dAUC) (ratio); higher = more growth (less inhibition), active = hit call of the paper
assay context: 20 µM
// reported relative growth for each item listed
# respond with the number and nothing more

// below: answered compounds
compound	reported
Clc1ccc(C(c2ccc(Cl)cc2)C(Cl)(Cl)Cl)cc1	0.913
N#CC(CCc1ccc(Cl)cc1)(Cn1cncn1)c1ccccc1 (stereo not drawn)	0.947
CCCCC(C#N)(Cn1cncn1)c1ccc(Cl)cc1 (stereo not drawn)	0.97
C[N+]1(C)CCCCC1	1

Exam item: GET /values?readout=relative growth&item= CCc1cccc(C)c1N(C(=O)CCl)[C@@H](C)COC
Marked response: 0.974

Exam item: And then COCC(=O)N(c1c(C)cccc1C)C(C)C(=O)OC (stereo not drawn) , what is it?
Marked response: 1.03

Exam item: Note, next up: C/C(=N\C#N)N(C)Cc1ccc(Cl)nc1
Marked response: 1.06

Exam item: Follow-up entry: Cc1nc(N(C)C)nc(OC(=O)N(C)C)c1C
Marked response: 0.942

====

Tested on: Pseudomonas 5 (Pseudomonas baetica)
protocol details: relative growth (AUC of 72 h growth curve relative to DMSO control, dAUC) (ratio); higher = more growth (less inhibition), active = hit call of the paper
assay context: 20 µM
experimental endpoint: relative growth
Answer as a number with no unit attached.

Record excerpt, results attached:
molecule	target system	relative growth
COC(=O)N(OC)c1ccccc1COc1ccn(-c2ccc(Cl)cc2)n1	Pseudomonas 5 (Pseudomonas baetica)	1.02
CSc1nnc(C(C)(C)C)c(=O)n1N	Pseudomonas 5 (Pseudomonas baetica)	0.998
CNC(=O)ON=C(C)SC	Pseudomonas 5 (Pseudomonas baetica)	1.02
CCOC(=O)OC1=C(c2cc(C)ccc2C)C(=O)N[C@]12CC[C@@H](OC)CC2	Pseudomonas 5 (Pseudomonas baetica)	0.981
Cc1nc(N(C)C)nc(OC(=O)N(C)C)c1C	Pseudomonas 5 (Pseudomonas baetica)	0.991

Exam item: Recorded relative growth for CCOP(=S)(OCC)Oc1cc(C)nc(C(C)C)n1 , please?
Marked response: 0.98

Exam item: Next record, please: CCN(CC)c1nc(C)cc(OP(=S)(OC)OC)n1
Marked response: 0.988

Exam item: Next record, please: COc1ccc(C(=CC(=O)N2CCOCC2)c2ccc(Cl)cc2)cc1OC (mixture of isomers)
Marked response: 0.972

Exam item: And then CNC(=O)CSP(=S)(OC)OC , what is it?
Marked response: 1.02

Exam item: Query COP(=O)(OC)OC=C(Cl)Cl next
Marked response: 1.01

Exam item: Now consider CO/N=C(/C(=O)OC)c1ccccc1CO/N=C(\C)c1cccc(C(F)(F)F)c1 .
Marked response: 0.978

====

System: Community 7
protocol details: relative growth (AUC of 72 h growth curve relative to DMSO control, dAUC) (ratio); higher = more growth (less inhibition), active = hit call of the paper
assay context: 20 µM
This listing pairs compounds with measured relative growth.

As a guide, the following entries are already answered.
compound	experimental endpoint	reported
CC(C)CC(C)c1sccc1NC(=O)c1cn(C)nc1C(F)(F)F (centres undefined)	relative growth	1.06 (inactive)
Oc1ccc(Cl)cc1Cc1cc(Cl)ccc1O	relative growth	0.862 (inactive)
C[C@@H]1[C@@H](c2ccc(Cl)cc2)SC(=O)N1C(=O)NC1CCCCC1	relative growth	1.05 (inactive)
CC1(C)C(C=C(Cl)Cl)C1C(=O)OC(C#N)c1ccc(F)c(Oc2ccccc2)c1 (centres undefined)	relative growth	0.868 (inactive)
CCC(=O)Nc1ccc(Cl)c(Cl)c1	relative growth	0.951 (inactive)
Nc1c(Cl)c(F)nc(OCC(=O)O)c1Cl	relative growth	1.01 (inactive)
CS(=O)(=O)c1ccc(C(=O)C2C(=O)CCCC2=O)c([N+](=O)[O-])c1	relative growth	0.957 (inactive)
O=C(NC(=O)c1c(F)cccc1F)Nc1ccc(OC(F)(F)C(F)OC(F)(F)F)c(Cl)c1 (centres undefined)	relative growth	1.11 (inactive)

Exam item: Quick check: relative growth of Cc1cc(C)nc(Nc2ccccc2)n1 ?
Marked response: 1.09 (inactive)

====

Tested on: Community 6
protocol details: relative growth (AUC of 72 h growth curve relative to DMSO control, dAUC) (ratio); higher = more growth (less inhibition), active = hit call of the paper;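 active = growth AUC significantly below the DMSO wells by Dunnett test; inactive = the rest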
assay context: 20 µM
Lab note: assign the record to one of active, inactive

Sample answers from the record:
molecule	class label
COC(=O)N(OC)c1ccccc1COc1ccn(-c2ccc(Cl)cc2)n1	inactive
C/C(=N\C#N)N(C)Cc1ccc(Cl)nc1	inactive
Oc1ccc(Cl)cc1Cc1cc(Cl)ccc1O	active
COP(=O)(NC(C)=O)SC (configuration not stated)	inactive
CCC(C)(C)C(=O)OC1=C(c2ccc(Cl)cc2Cl)C(=O)OC12CCCCC2	inactive

Exam item: # outcome recorded in this test, key = CCCCC(C#N)(Cn1cncn1)c1ccc(Cl)cc1 (configuration not stated)
Marked response: inactive

Exam item: Then this molecule: CS(=O)(=O)c1ccc(C(=O)C2C(=O)CCCC2=O)c([N+](=O)[O-])c1
Marked response: inactive

Exam item: Also, CC(C)NC(=O)N1CC(=O)N(c2cc(Cl)cc(Cl)c2)C1=O please.
Marked response: inactive

====

Tested on: Flavobacterium 2 (Flavobacterium succinicans)
protocol details: relative growth (AUC of 72 h growth curve relative to DMSO control, dAUC) (ratio); higher = more growth (less inhibition), active = hit call of the paper
assay context: 20 µM
Decision: relative growth compared against 1; not below it gives yes, below it gives no.

compound	class label
N#Cc1sc2c(=O)c3ccccc3c(=O)c=2sc1C#N	yes
C#CCOc1ccc(CCNC(=O)C(OCC#C)c2ccc(Cl)cc2)cc1OC (stereo not drawn)	no
Fc1ccc([C@]2(Cn3cncn3)O[C@H]2c2ccccc2Cl)cc1 (racemic)	no

Exam item: Given CC[C@H](C)C1O[C@]2(C=C[C@@H]1C)C[C@@H]1C[C@@H](C/C=C(\C)[C@@H](O[C@H]3C[C@H](OC)[C@@H](O[C@H]4C[C@H](OC)[C@H](NC)[C@H](C)O4)[C@H](C)O3)[C@@H](C)/C=C/C=C3\CO[C@@H]4[C@H](O)C(C)=C[C@@H](C(=O)O1)[C@]34O)O2 (stereo partly drawn) , state whether its relative growth is at least 1.
Marked response: no

Exam item: Let us now turn to OC(Cn1cncn1)(c1ccc(F)cc1)c1ccccc1F (stereo not drawn)
Marked response: yes
